meta.source: ChEMBL document CHEMBL5126536

# measurement notes: Toxicity in Sprague-Dawley rat assessed as maximum tolerated dose administered orally upto 28 days consecutively
# reported conditions: in vivo, route po, time < 28 day
measured property: MTD at 672 h

Q: Look up MTD at 672 h: "O=S(=O)(N[C@H](CO)C(C(F)(F)F)C(F)(F)F)c1ccc(Cl)s1"
Ans: 2000 mg/kg/day

====

# measurement notes: Oral bioavailability in rat
# Type: ADME, organism-based
# reported conditions: in vivo
measured property: bioavailability (%)
Unit % implied. Number only.

Q: Look up bioavailability: "O=C(O)C1(c2ccc(-c3ccc(Cl)c(Cl)c3)c(F)c2)CC1"
Ans: 50

====

# subject of test: Gamma-secretase
# measurement notes: Inhibition of gamma-secretase (unknown origin) assessed as inhibition of Amyloid beta 40 production by cell-free assay
# Assay type: protein-complex assay, Homo sapiens
measured property: pEC50
// pEC50 is dimensionless: -log10 of concentration (M)

Q: Look up pEC50: "O=S(=O)(N[C@H](CO)C(C(F)(F)F)C(F)(F)F)c1ccc(Cl)s1"
Ans: 7.83

====

# measurement notes: Half life in rat
# Format: ADME
# reported conditions: in vivo
measured property: half-life (h)
Unit h implied. Number only.

Q: Look up half-life: "O=C(O)C1(c2ccc(-c3ccc(Cl)c(Cl)c3)c(F)c2)CC1"
Ans: 20

====

# subject of test: Amyloid-beta precursor protein (Homo sapiens, UniProt P05067)
# Sequence (P05067 whole entry): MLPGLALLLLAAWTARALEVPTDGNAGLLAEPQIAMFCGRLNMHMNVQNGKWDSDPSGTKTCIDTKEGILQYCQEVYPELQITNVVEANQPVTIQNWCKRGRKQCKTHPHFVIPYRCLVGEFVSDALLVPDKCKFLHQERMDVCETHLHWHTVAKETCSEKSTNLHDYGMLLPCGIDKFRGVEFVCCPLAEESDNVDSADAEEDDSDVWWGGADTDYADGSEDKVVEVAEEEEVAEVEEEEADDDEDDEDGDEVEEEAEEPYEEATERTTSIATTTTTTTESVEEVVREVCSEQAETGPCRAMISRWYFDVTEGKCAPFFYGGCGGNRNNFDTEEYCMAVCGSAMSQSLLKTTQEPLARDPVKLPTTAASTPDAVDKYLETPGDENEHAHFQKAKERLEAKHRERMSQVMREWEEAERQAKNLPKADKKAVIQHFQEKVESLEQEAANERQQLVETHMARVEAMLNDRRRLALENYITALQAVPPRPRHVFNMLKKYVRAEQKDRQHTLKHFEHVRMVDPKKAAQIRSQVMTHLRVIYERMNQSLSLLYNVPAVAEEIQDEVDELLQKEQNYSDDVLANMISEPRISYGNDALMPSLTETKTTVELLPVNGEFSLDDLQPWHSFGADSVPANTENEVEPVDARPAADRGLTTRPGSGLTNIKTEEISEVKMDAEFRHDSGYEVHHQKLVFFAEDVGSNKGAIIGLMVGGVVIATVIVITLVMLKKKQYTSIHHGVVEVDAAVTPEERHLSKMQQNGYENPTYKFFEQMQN
# measurement notes: Modulation of amyloid beta 42 in human H4 cells expressing APP751 incubated overnight by ELISA
measured property: pEC50
// pEC50 is dimensionless: -log10 of concentration (M)

Q: Look up pEC50: "COc1nc(C2=NOC[C@H](c3cc4ccccc4o3)N2)ccc1-n1cnc(C)c1"
Ans: 7.46
